Origin of values: the supplement of paper PMC10065799

- measurement target: SHP2-C SH2;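 further: peptide library displayed on the E. coli surface as eCPX fusions, selected cells deep-sequenced, score is each peptide's frequency after selection divided by its frequency in the input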
- experiment: SH2 binding enrichment of the phosphorylated peptide, bacterial display (enrichment ratio); higher = better substrate or ligand; peptides without Tyr show the background
Classification field. Basis: SH2 binding enrichment. Definitions: lower segment (below 0.7), middle segment (0.7 to below 0.8), upper segment (0.8 or more)

INSERT INTO measurements (seq, class_assignment) VALUES
  ('KKILCYIQGGS [HYDIN_Y4610_N4606K]', 'lower segment');

Assign a bin to AACQHYGVHTC [NR4A2_Y275_R278H]
upper segment

Follow-up item: KGIQLYDTPFE [SHB_Y297_YF]
upper segment

Follow-up item: VDLSKYITTIA [FAS_Y232]
lower segment

Follow-up item: IRKAEYPFSSE [ATP2C1_Y452]
lower segment

Follow-up item: SETSRYLSELF [KCNJ3_Y67_D70E]
middle segment

Follow-up item: CTTIHYNFTCN [TP53_Y234_M237T_YF]
upper segment

Follow-up item: SGSFRYGSSCE [SELE_Y390]
middle segment

Follow-up item: ISSLDYISKTK [VAV3_Y294]
middle segment

Follow-up item: MHDKEYFSVHN [MET_Y1234_Y1230H_YF]
upper segment

Follow-up item: GITVAYTIPKK [UBA5_Y372]
upper segment

Follow-up item: PELINYQQHNS [BTK_Y361_H362Q]
middle segment

* * *

- measurement target: Hck (UniProt P08631)
- Sequence (P08631 whole entry, looked up): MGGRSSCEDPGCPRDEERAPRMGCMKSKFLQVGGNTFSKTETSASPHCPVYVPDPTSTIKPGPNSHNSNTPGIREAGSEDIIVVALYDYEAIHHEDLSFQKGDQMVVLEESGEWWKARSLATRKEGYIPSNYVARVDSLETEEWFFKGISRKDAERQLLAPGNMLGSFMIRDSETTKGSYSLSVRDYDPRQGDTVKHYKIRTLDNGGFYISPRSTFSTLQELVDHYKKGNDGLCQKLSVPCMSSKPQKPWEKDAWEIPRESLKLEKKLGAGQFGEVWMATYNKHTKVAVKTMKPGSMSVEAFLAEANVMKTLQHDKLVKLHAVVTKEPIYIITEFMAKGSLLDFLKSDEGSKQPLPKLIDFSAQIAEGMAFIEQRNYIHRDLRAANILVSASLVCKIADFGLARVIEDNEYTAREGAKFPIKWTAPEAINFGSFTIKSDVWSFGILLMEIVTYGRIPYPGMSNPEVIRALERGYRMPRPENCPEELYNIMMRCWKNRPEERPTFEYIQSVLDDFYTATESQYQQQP
- experiment: phosphorylation enrichment, bacterial display (enrichment ratio); higher = better substrate or ligand; peptides without Tyr show the background
assay endpoint: phosphorylation enrichment
Output: the number by itself.

INSERT INTO measurements (seq, result_number) VALUES
  ('LFSGDYFRIQG [DDR2_Y740_YF]', 1.57);

We next turn to a different sequence, shown below.
Lab request: please report phosphorylation enrichment under test system Hck (UniProt P08631) for TFRPPYYHRDC [HGD_Y333_N337D]
0.822

* * *

- measurement target: FGFR3 (UniProt P22607)
- Sequence (P22607 whole entry, looked up): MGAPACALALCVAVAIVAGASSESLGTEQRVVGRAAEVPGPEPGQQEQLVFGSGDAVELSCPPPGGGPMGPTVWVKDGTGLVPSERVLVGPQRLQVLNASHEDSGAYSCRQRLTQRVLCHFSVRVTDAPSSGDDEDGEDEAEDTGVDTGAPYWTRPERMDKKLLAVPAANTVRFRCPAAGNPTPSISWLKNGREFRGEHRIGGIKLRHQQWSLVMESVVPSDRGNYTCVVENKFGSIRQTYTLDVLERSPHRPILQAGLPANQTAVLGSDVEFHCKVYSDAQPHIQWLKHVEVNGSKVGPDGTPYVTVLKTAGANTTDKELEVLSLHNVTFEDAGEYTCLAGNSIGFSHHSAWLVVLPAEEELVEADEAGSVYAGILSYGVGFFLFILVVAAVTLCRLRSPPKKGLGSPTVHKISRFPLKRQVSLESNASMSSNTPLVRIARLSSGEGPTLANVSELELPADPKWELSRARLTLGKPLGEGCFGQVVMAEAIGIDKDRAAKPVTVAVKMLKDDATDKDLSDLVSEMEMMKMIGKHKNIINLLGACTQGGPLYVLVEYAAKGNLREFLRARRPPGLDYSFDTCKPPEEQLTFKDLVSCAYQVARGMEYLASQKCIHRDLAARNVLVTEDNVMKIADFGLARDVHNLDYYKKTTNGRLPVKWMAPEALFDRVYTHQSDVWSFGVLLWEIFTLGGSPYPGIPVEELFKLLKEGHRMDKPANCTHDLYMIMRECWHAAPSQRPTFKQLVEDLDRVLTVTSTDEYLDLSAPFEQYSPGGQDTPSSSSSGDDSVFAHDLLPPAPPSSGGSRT
- experiment: phosphorylation enrichment, bacterial display (enrichment ratio); higher = better substrate or ligand; peptides without Tyr show the background
assay endpoint: phosphorylation enrichment

Lab request: please report phosphorylation enrichment under test system FGFR3 (UniProt P22607) for IEDPFYGNDSD [ACP1_Y133_YF]
0.966

Follow-up item: ALWYIYLHTRS [ENG_Y614_S615L]
0.821

* * *

- measurement target: FGFR1 (UniProt P11362)
- Sequence (P11362 whole entry, looked up): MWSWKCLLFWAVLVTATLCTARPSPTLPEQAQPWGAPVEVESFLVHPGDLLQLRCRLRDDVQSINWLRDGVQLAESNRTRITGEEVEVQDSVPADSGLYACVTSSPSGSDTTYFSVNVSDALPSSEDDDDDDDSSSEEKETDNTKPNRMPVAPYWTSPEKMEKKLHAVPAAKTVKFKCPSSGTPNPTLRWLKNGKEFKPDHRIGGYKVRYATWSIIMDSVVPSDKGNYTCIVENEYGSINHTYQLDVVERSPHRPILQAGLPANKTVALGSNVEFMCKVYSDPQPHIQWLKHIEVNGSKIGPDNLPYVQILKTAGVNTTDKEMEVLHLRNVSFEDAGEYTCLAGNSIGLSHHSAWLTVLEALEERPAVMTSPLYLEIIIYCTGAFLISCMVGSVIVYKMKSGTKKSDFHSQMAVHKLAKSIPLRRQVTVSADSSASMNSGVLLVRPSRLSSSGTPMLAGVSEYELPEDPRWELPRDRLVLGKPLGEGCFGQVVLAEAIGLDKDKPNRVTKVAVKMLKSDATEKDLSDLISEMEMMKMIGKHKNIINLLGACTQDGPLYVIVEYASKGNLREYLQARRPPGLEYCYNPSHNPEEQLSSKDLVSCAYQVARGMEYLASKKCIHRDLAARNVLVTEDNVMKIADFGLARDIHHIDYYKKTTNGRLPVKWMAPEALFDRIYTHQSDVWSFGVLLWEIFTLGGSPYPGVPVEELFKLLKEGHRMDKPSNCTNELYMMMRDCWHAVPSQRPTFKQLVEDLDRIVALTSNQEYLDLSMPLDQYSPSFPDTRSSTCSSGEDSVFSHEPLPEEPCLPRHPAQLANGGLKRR
- experiment: phosphorylation enrichment, bacterial display (enrichment ratio); higher = better substrate or ligand; peptides without Tyr show the background
Readings of phosphorylation enrichment for the listed sequences
Output: the number by itself.

Would you please look over these solved cases?
INSERT INTO assay_data (seq, assay_endpoint, result_number) VALUES
  ('FEPWVYSFSFE [PRKDC_Y647_YF]', 'phosphorylation enrichment', 0.653),
  ('LPKEQYLCTKE [AFG3L2_Y614_Y616C]', 'phosphorylation enrichment', 0.482),
  ('SLFNGYVFSGM [NEIL3_Y71_V76M_YF]', 'phosphorylation enrichment', 0.487),
  ('IGGHAYGDQYR [IDH1_Y135_R132G]', 'phosphorylation enrichment', 0.364),
  ('KASRKYFAMKI [AKT3_Y173_G171R_YF]', 'phosphorylation enrichment', 0.365);

Which phosphorylation enrichment value belongs to KWHREYNSKFV [RICTOR_Y835_YF] ?
0.371

Follow-up item: KTVQDYLKKFY [MMP8_Y36_E38K]
0.428

Follow-up item: FAREGYSALPQ [SARS2_Y52_YF]
0.471

Follow-up item: TDLAYYLVRKG [ASL_Y376]
3.17

Follow-up item: DPLLTYRFPPK [LMNA_Y481]
0.452

* * *

- System: c-Src
- experiment: phosphorylation enrichment, bacterial display (enrichment ratio); higher = better substrate or ligand; peptides without Tyr show the background
# phosphorylation enrichment >= 0.5 gives y, anything below gives n

Please review the following examples before continuing.
INSERT INTO measurements (seq, class_assignment) VALUES
  ('VDLSKYITTIA [FAS_Y232]', 'n'),
  ('FEPWVYSFSFE [PRKDC_Y647_YF]', 'y'),
  ('IGGHAYGDQYR [IDH1_Y135_R132G]', 'n'),
  ('QNTGGYYDLYG [PTPN11_Y62_D61G]', 'y');

Item QQLVAYYSKHT [SRC_Y232_A237T] with phosphorylation enrichment of 0.5 or above?
y

Follow-up item: YQKDVYNIPPS [NEDD9_Y177_D178N]
y

Follow-up item: HNLDYYKQTTN [FGFR3_Y648_K650Q]
n

Follow-up item: KYLENYYDLKK [MMP3_Y41]
y

Follow-up item: KEGSAYGSQSV [NFKB2_Y868_D865G]
n

Follow-up item: KWRGQYDVANK [BTK_Y425_I429N]
n

Follow-up item: VDESLYKTHPQ [HK1_Y417_G414E]
y

Follow-up item: KGIQLYDTPFE [SHB_Y297_YF]
y

* * *

- measurement target: MERTK (UniProt Q12866)
- Sequence (Q12866 whole entry, looked up): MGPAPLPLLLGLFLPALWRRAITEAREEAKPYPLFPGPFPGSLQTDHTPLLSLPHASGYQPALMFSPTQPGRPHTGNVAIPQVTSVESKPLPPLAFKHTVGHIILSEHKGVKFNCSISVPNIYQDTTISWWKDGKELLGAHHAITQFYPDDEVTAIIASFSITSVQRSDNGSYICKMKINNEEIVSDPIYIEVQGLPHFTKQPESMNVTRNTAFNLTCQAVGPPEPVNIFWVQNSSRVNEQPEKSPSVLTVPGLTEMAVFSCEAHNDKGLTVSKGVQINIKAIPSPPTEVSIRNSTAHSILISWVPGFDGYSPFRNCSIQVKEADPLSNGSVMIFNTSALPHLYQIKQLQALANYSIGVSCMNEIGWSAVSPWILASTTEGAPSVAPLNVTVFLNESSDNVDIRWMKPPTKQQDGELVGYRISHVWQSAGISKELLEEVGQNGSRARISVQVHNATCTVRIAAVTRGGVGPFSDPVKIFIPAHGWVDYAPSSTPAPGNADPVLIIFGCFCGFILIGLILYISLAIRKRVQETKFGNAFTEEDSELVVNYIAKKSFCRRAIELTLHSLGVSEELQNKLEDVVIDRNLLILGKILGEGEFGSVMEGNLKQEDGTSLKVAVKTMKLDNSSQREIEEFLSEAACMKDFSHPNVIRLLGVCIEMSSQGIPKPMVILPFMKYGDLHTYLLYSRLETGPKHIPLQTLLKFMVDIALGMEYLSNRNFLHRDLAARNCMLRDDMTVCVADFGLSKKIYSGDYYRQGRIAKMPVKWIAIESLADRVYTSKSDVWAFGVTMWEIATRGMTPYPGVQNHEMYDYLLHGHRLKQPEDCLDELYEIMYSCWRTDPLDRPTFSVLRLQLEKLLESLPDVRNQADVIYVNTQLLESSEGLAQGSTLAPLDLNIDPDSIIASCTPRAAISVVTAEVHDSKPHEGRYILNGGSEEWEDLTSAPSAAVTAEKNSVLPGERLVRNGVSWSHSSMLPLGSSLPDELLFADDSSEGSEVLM
- experiment: phosphorylation enrichment, bacterial display (enrichment ratio); higher = better substrate or ligand; peptides without Tyr show the background
assay endpoint: phosphorylation enrichment
Output: the number by itself.

INSERT INTO assay_data (seq, assay_endpoint, result_number) VALUES
  ('DRLASSLDKVR [KRT10_Y160_Y160S]', 'phosphorylation enrichment', 0.331);

We next turn to a different sequence, shown below.
Lab request: please report phosphorylation enrichment under test system MERTK (UniProt Q12866) for IGKDLYANNVL [ACTA2_Y296_R292G]
0.556

* * *

Readings of phosphorylation enrichment for the listed sequences
- measurement target: Fes (UniProt P07332)
- Sequence (P07332 whole entry, looked up): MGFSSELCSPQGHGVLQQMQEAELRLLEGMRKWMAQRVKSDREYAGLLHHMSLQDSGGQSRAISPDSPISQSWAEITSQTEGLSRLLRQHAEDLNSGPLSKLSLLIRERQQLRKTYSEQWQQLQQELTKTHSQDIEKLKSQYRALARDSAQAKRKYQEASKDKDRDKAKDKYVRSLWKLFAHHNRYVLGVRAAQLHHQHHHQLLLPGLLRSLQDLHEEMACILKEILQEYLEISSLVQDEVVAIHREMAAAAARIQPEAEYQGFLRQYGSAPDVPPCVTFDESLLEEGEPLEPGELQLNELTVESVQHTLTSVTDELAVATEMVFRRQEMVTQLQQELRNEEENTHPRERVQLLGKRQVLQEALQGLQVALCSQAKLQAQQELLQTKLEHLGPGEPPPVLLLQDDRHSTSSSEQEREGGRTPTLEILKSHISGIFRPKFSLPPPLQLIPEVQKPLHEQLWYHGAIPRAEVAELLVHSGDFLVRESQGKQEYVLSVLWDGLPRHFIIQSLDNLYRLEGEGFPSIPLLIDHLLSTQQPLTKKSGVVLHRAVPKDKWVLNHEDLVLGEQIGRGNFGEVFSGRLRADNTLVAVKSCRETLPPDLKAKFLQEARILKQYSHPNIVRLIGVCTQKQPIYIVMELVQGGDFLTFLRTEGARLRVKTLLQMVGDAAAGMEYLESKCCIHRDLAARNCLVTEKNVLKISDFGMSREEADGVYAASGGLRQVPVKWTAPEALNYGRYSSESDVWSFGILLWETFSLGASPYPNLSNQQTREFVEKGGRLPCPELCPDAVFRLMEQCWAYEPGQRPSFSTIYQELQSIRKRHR
- experiment: phosphorylation enrichment, bacterial display (enrichment ratio); higher = better substrate or ligand; peptides without Tyr show the background

INSERT INTO measurements (seq, result) VALUES
  ('NYADPYRQLPY [CTNND2_Y503_Q507P]', 0.819);

Which phosphorylation enrichment value belongs to MSRLKYPVSQQ [BTK_Y375_I370M] ?
0.706

Follow-up item: TFRPPYYHRDC [HGD_Y333_N337D]
1.28

Follow-up item: QEALEYFMKQT [PIK3CA_Y1038_M1043T]
3.76

* * *

- System: Fer (mouse)
- experiment: phosphorylation enrichment, bacterial display (enrichment ratio); higher = better substrate or ligand; peptides without Tyr show the background
Classification field. Basis: phosphorylation enrichment. Definitions: low: < 0.4; intermediate: ≥ 0.4 and < 0.6; high: ≥ 0.6

Please review the following examples before continuing.
INSERT INTO results (seq, class_assignment) VALUES
  ('GLGGGCGGASG [KRT8_Y54_Y54C]', 'intermediate'),
  ('IQVNAYFSPIH [ADSL_Y432_D430N]', 'intermediate'),
  ('IQVDAYFSPIH [ADSL_Y432]', 'high'),
  ('EALDFYGEVRI [PTEN_Y155_T160I]', 'high');

Could you now consider this next sequence?
Assign a bin to MMVGAYSSLEG [ECPAS_Y470_T472S]
intermediate

* * *

- Test system: c-Abl (mouse)
- experiment: phosphorylation enrichment, bacterial display (enrichment ratio); higher = better substrate or ligand; peptides without Tyr show the background
Readings of phosphorylation enrichment for the listed sequences
Output: the number by itself.

Would you please look over these solved cases?
INSERT INTO assay_data (seq, assay_endpoint, result_number) VALUES
  ('LRVHSYKSMQP [DRC7_Y516]', 'phosphorylation enrichment', 0.785),
  ('PVDVAYRRGFF [PLEC_Y2967_YF]', 'phosphorylation enrichment', 0.574),
  ('QPEDIYHQTWA [GBA_Y244_G241E]', 'phosphorylation enrichment', 9.69),
  ('ISSLDYISKTK [VAV3_Y294]', 'phosphorylation enrichment', 0.478),
  ('FYVVRYCWLRR [MPZ_Y181]', 'phosphorylation enrichment', 0.758);

Which phosphorylation enrichment value belongs to DRTGHYLCNAC [GATA1_Y223] ?
0.575

Follow-up item: IGKDLYANNVL [ACTA2_Y296_R292G]
0.77

* * *

- measurement target: Fes (UniProt P07332)
- experiment: phosphorylation enrichment, bacterial display (enrichment ratio); higher = better substrate or ligand; peptides without Tyr show the background
# phosphorylation enrichment >= 0.9 gives Met, anything below gives Not met

INSERT INTO measurements (seq, measurement_target, class_assignment) VALUES
  ('KVGPGYLGSRG [RET_Y826_G830R]', 'Fes (UniProt P07332)', 'Not met'),
  ('VLNDAYENLTR [SYNE2_Y3255]', 'Fes (UniProt P07332)', 'Not met'),
  ('DRTGHYLCNAC [GATA1_Y223]', 'Fes (UniProt P07332)', 'Not met'),
  ('DLDTEYGSGYP [RNASEH2A_Y206_D205E]', 'Fes (UniProt P07332)', 'Met'),
  ('ETWHNYHKFDS [MATR3_Y243_S240W]', 'Fes (UniProt P07332)', 'Not met');

Item PVKTPYSLKRW [BMPR2_Y979_R974P] with phosphorylation enrichment of 0.9 or above?
Met

Follow-up item: RGRSTYFWPRP [GAGE12J_Y9_YF]
Met
